molecular target: Flt3(D835Y)(h) (Homo sapiens, UniProt P36888, D835Y); test: Kinase Profiling Assay; format: biochemical; details: peptide 100 μM
No end group written: not given here.
List of % activity values.
quantity-name: % activity

INSERT INTO measurements (residue_string, measurement) VALUES
  ('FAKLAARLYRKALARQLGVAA [MMI-0300]', '80%'),
  ('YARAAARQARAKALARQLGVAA [MMI-0100]', '120%'),
  ('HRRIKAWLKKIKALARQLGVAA (Mammal) [MMI-0500]', '65%'),
  ('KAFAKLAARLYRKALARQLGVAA [MMI-0400]', '71%');
